Listed here: items and their measured reduction of 22Rv1 cell viability.
Tested on: 22Rv1 prostate cancer cells
Test: MTS cytotoxicity assay in 22Rv1 prostate cancer cells
Type: cell-based
Conditions: 100 μM, 48 hr treatment, MTS
Kindly provide the numeric value in % only, without the unit symbol.

Solved entries (count: 3):
>>> result("O=S1(=O)NC(=S)Nc2ccc(Br)cc21 [Compound 12c]")
16
>>> result("O=S1(=O)N=C(NCCc2c[nH]c3ccccc23)Nc2ccc(F)cc21 [Compound 36a]")
30
>>> result("CC(NC1=NS(=O)(=O)c2ccc(Cl)cc2N1)c1ccccc1 (stereo not drawn) [Compound 24b]")
50

Moving on to the next molecule.
Task: Please look up its reduction of 22Rv1 cell viability: COc1ccc(CNC2=NS(=O)(=O)c3cc(Br)ccc3N2)cc1 [Compound 20c]
Output: 41
